# assayed_target: c-kit (Homo sapiens, UniProt P10721)
# Construct: human Mo7e cells which endogenously express c-kit; endogenous in cells; host or cells: human Mo7e cells (SCF-dependent promegakaryocytic leukemia line)
# Sequence (P10721 26-976): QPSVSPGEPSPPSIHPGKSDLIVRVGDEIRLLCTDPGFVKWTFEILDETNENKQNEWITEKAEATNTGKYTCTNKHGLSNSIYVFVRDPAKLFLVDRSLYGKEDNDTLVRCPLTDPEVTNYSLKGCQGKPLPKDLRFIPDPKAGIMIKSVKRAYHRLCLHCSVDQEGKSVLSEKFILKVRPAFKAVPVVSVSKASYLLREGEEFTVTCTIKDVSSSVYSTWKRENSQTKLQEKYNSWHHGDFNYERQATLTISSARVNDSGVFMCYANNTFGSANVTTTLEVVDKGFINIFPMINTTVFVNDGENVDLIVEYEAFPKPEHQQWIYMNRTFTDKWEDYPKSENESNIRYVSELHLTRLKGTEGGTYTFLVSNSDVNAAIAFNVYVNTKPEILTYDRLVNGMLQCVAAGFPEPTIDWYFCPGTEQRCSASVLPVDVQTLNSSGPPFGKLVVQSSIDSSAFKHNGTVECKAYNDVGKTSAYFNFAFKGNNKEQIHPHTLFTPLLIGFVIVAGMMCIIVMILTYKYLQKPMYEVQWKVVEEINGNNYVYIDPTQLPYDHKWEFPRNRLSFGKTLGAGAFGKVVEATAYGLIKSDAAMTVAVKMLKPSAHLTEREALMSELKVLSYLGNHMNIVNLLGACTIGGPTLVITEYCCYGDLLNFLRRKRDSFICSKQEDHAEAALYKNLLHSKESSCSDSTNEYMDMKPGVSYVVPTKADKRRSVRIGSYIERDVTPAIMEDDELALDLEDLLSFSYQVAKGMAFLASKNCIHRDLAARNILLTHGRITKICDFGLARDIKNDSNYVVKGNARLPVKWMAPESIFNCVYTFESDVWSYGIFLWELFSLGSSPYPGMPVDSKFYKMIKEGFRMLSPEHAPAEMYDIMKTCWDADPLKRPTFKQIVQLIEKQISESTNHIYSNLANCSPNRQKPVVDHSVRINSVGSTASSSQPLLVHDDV
# assay_procedure: Mo7e cell proliferation assay (SCF dependent proliferation)
# Assay type: cell-based
# condition_notes: Table 2; human Mo7e cells stimulated with human recombinant SCF, 48 h, CellTiter Glo; 1% FBS (footnote)
In this section we review reported IC50 values for a set of molecules.
Quote the value and follow it with the unit of measurement.

Example molecules with recorded IC50:
{"molecule": "CC(=O)CCc1ccc2ncc(C(=O)Nc3cc(-c4noc(C)n4)ccc3C)n2c1", "assayed_target": "c-kit (Homo sapiens, UniProt P10721)", "quantity": "IC50", "assay_result": "356 nM"}
{"molecule": "COC(=O)NCc1nc(-c2ccc(C)c(NC(=O)c3cnc4cc(C(F)(F)F)ccn34)c2)no1", "assayed_target": "c-kit (Homo sapiens, UniProt P10721)", "quantity": "IC50", "assay_result": "462 nM"}
{"molecule": "Cc1nc(-c2ccc(C)c(NC(=O)c3cnc4ccc(C5CC5)cn34)c2)no1", "assayed_target": "c-kit (Homo sapiens, UniProt P10721)", "quantity": "IC50", "assay_result": "144 nM"}

Quick one: IC50 of CC(=O)N[C@@H](C)c1nc(-c2ccc(C)c(NC(=O)c3cnc4ccccn34)c2)no1 [F213] ?
795 nM

Param item: COCc1nc(-c2ccc(C)c(NC(=O)c3cnc4ccccn34)c2)no1
142 nM

Param item: Cc1ccc(-c2noc(NCC(C)(C)O)n2)cc1NC(=O)c1cnc2cc(F)ccn12
313 nM

Param item: Cc1ccc(-c2noc(C[C@@H](C)NS(C)(=O)=O)n2)cc1NC(=O)c1cnc2ccccn12
220 nM

Param item: COC(=O)NCc1nc(-c2ccc(C)c(NC(=O)c3cnc4cc(CCC(C)=O)ccn34)c2)no1
240 nM

Param item: Cc1nc(-c2ccc(C)c(NC(=O)c3cnc4ccc(CCN5CCOCC5C)cn34)c2)no1 (stereo not drawn)
416 nM

---

In this section we review reported pIC50 values for a set of molecules.
# assayed_target: c-kit (Homo sapiens)
# Construct: human Mo7e cells which endogenously express c-kit; endogenous in cells; host or cells: human Mo7e cells (SCF-dependent promegakaryocytic leukemia line)
# assay_procedure: Mo7e cell proliferation assay (SCF dependent proliferation)
# Assay type: cell-based
# condition_notes: Table 1; human Mo7e cells stimulated with human recombinant SCF, 48 h, CellTiter Glo; 1% FBS (footnote)
Please keep in mind that pIC50 is minus log10 of the molar concentration; only the number is needed.

Example molecules with recorded pIC50:
{"molecule": "Cc1ccc2ncc(C(=O)Nc3cc(-c4noc(COCC(F)(F)F)n4)ccc3C)n2c1", "assay_result": 7.89}
{"molecule": "Cc1nc(-c2ccc(C)c(NC(=O)c3cnc4ccc(-c5sc(CO)nc5C)cn34)c2)no1", "assay_result": 8.10}
{"molecule": "[2H]c1c([2H])c([2H])n2c(C(=O)Nc3cc(-c4noc(CC=C(C)C)n4)ccc3C)cnc2c1[2H]", "assay_result": 7.80}
{"molecule": "Cc1nc(-c2ccc(C)c(NC(=O)c3cnc4ccc(-c5ccccc5C)cn34)c2)no1", "assay_result": 7.02}
{"molecule": "Cc1ccc(-c2noc(CCC(F)(F)F)n2)cc1NC(=O)c1cnc2ccccn12", "assay_result": 7.44}
{"molecule": "COC(=O)NCc1nc(-c2ccc(C)c(NC(=O)c3cnc4cc(-c5cnn(CCN6CCOCC6)c5)ccn34)c2)no1", "assay_result": 7.64}

Quick one: pIC50 of Cc1ccn2c(C(=O)Nc3cc(-c4noc(CCC(O)C(F)(F)F)n4)ccc3C)cnc2c1 (centres unmarked) [F98] ?
7.74

Param item: CCOCc1nc(-c2ccc(C)c(NC(=O)c3cnc4ccccn34)c2)no1
7.31
